Reference source: patent US20250049832A1

test: physchem; assay type: physicochemical; conditions: 37 °C, pH 1.24, simulated gastric fluid, thermodynamic from solid
quantity.name: Solubility

Per the record, N#C[C@@]1(c2ccc3c(N)ncnn23)O[C@H](COC(=O)C2CCCCC2)[C@@H](O)[C@H]1O [ATV014 crystalline form I] has Solubility of ~2900 µg/mL
